biological target: D(2) dopamine receptor (Homo sapiens); test: Partial agonist activity at Dopamine D2 receptor (unknown origin) expressed in HEK293T co-expressing G-alphai assessed as increase in cAMP accumulation incubated for 5 mins by BRET assay; type: functional, cell-based; conditions: read-out: EC50
Sequence (P14416 whole entry): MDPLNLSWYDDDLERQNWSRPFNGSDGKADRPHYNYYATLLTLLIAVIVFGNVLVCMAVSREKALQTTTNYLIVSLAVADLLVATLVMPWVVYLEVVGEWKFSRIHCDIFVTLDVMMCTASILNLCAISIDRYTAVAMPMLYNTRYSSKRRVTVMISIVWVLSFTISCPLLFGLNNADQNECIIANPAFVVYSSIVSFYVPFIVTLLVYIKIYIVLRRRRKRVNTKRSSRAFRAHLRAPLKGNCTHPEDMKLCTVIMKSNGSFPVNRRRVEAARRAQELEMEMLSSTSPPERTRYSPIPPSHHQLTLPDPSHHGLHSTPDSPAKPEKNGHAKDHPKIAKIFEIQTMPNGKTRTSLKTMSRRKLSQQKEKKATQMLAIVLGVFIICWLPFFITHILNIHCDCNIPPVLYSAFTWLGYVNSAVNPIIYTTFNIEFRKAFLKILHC
Endpoint: pEC50
Please express pEC50 as -log10 of the molar concentration.

Previously resolved entries follow.
COc1cccc2c3c(oc12)CN(CCCCOc1ccc2cccnc2c1)CC3	5.65
CCOc1cccc2cc(CNCC[C@H]3CC[C@H](NC(=O)N4CCCC4)CC3)oc12	7.96

Shift focus to the following entry.
Enter reported pEC50 observed with D(2) dopamine receptor (Homo sapiens) for `COc1cccc2c3c(oc12)CN(CCCOc1ccc2ccc(=O)[nH]c2c1)CC3`
9.51
